Hello, the source for this data is paper PMC4792735, in case you need it.

- testedTarget: human MATE1 (Homo sapiens, UniProt Q96FL8)
- Sequence (Q96FL8 whole entry): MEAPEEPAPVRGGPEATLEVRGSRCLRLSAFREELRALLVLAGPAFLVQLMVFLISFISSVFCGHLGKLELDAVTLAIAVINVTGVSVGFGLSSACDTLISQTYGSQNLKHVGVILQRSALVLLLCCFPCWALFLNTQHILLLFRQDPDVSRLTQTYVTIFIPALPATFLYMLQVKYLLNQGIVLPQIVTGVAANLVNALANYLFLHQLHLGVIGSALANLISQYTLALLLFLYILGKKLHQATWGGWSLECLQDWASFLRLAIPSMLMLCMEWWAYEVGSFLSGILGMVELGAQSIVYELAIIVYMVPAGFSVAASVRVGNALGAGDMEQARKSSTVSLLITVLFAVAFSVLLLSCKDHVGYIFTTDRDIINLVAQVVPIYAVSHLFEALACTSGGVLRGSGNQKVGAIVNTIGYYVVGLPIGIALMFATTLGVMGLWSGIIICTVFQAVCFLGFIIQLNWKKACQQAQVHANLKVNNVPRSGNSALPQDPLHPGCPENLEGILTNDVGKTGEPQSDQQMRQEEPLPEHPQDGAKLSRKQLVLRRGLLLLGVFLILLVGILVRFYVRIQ
- testName: Inhibition of [14C]-metformin uptake in HEK-MATE1 cells
pIC50: −log10 of the molar value.
parameter: pIC50

A. CNC(=C[N+](=O)[O-])NCCSCc1csc(CN(C)C)n1
B. COc1c(N2C[C@@H]3CCCN[C@@H]3C2)c(F)cc2c(=O)c(C(=O)O)cn(C3CC3)c12
C. CCn1cc(C(=O)O)c(=O)c2cc(F)c(N3CCNCC3)cc21
Q: Give the descending pIC50 ranking for the 3 compounds listed above. A ranking is expressed here by listing the labels in the requested order.
A: B, C, A

* * *

IC50 values, listed per item
- testedTarget: human OCT2 (Homo sapiens)
- Sequence (O15244 whole entry): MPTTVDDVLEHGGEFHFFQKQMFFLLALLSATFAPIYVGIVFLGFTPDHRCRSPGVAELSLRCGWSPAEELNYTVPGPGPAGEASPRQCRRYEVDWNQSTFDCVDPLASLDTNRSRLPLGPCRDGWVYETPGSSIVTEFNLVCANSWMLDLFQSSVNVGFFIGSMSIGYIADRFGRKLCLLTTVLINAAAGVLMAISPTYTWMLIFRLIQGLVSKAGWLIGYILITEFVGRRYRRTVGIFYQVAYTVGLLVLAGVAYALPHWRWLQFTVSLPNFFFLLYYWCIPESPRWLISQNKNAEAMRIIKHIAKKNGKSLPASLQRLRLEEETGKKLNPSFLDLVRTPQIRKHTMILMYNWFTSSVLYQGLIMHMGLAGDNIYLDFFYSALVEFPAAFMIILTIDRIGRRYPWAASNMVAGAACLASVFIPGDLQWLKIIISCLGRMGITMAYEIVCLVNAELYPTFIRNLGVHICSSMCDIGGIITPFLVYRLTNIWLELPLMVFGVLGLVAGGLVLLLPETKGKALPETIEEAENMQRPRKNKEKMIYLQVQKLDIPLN
- testName: Inhibition of [14C]-metformin uptake in HEK-OCT2 cells

Guide cases for IC50, answers given:
[
  {
    "querySmiles": "CNC(=C[N+](=O)[O-])NCCSCc1ccc(CN(C)C)o1",
    "testedTarget": "human OCT2 (Homo sapiens)",
    "reportedMeasurement": "15.7 µM"
  },
  {
    "querySmiles": "CNC(=C[N+](=O)[O-])NCCSCc1csc(CN(C)C)n1",
    "testedTarget": "human OCT2 (Homo sapiens)",
    "reportedMeasurement": "> 115 µM"
  },
  {
    "querySmiles": "CCn1cc(C(=O)O)c(=O)c2cc(F)c(N3CCNCC3)cc21",
    "testedTarget": "human OCT2 (Homo sapiens)",
    "reportedMeasurement": "> 160 µM"
  }
]

Let us move to another entry and its IC50.
Q: Sample COc1c(N2C[C@@H]3CCCN[C@@H]3C2)c(F)cc2c(=O)c(C(=O)O)cn(C3CC3)c12 — what was its IC50?
A: > 151 µM

* * *

- testedTarget: human MATE2K (Homo sapiens, UniProt Q86VL8)
- Sequence (Q86VL8 1-566 isoform Q86VL8-3): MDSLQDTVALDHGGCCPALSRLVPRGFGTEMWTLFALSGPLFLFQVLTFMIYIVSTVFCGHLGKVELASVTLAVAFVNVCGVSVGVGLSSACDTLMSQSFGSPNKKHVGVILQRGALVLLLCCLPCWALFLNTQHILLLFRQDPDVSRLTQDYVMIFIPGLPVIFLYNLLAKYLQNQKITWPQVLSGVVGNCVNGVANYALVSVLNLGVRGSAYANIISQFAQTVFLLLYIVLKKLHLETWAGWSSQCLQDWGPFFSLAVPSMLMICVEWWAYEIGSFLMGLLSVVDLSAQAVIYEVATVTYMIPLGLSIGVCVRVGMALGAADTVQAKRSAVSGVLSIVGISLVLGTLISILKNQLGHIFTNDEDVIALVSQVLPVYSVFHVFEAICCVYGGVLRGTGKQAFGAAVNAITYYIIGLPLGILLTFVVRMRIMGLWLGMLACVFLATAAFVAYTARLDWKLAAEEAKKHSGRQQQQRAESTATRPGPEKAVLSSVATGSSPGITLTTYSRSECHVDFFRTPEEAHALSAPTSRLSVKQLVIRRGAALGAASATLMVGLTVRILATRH
- testName: in vitro
- assaySetup: probe [14C]-metformin 10 µM
parameter: inhibition at 10 x Cmax,u

Guide cases for inhibition at 10 x Cmax,u, answers given:
[
  {
    "compound": "Cc1nccn1CC1CCc2c(c3ccccc3n2C)C1=O (stereo not shown)",
    "parameter": "inhibition at 10 x Cmax,u",
    "reportedMeasurement": "≥ 50%"
  },
  {
    "compound": "CC(=O)OCC(CCn1cnc2cnc(N)nc21)COC(C)=O",
    "parameter": "inhibition at 10 x Cmax,u",
    "reportedMeasurement": "≥ 50%"
  },
  {
    "compound": "COc1c(N2C[C@@H]3CCCN[C@@H]3C2)c(F)cc2c(=O)c(C(=O)O)cn(C3CC3)c12",
    "parameter": "inhibition at 10 x Cmax,u",
    "reportedMeasurement": "≥ 50%"
  },
  {
    "compound": "CN/C(=N/CCSCc1nc[nH]c1C)NC#N",
    "parameter": "inhibition at 10 x Cmax,u",
    "reportedMeasurement": "≥ 50%"
  },
  {
    "compound": "CCN(CC)CCNC(=O)c1ccc(N)cc1 [procainamide]",
    "parameter": "inhibition at 10 x Cmax,u",
    "reportedMeasurement": "≥ 50%"
  },
  {
    "compound": "CNC(=C[N+](=O)[O-])NCCSCc1csc(CN(C)C)n1",
    "parameter": "inhibition at 10 x Cmax,u",
    "reportedMeasurement": "≥ 50%"
  }
]

Q: Sample COc1cc(Cc2cnc(N)nc2N)cc(OC)c1OC — what was its inhibition at 10 x Cmax,u?
A: ≥ 50%

Q: Sample CCn1cc(C(=O)O)c(=O)c2cc(F)c(N3CCNCC3)cc21 — what was its inhibition at 10 x Cmax,u?
A: ≥ 50%

Q: Sample C=C[C@H]1C[N@@]2CC[C@H]1C[C@H]2[C@H](O)c1ccnc2ccc(OC)cc12 — what was its inhibition at 10 x Cmax,u?
A: ≥ 50%

Q: Sample CNC(=C[N+](=O)[O-])NCCSCc1ccc(CN(C)C)o1 — what was its inhibition at 10 x Cmax,u?
A: ≥ 50%
